# measurement.target: UniProtKB Q13547
# measurement.protocol: Histone Deacetylase (HDAC) enzymatic activity, [3H]acetyl-labeled histone substrate
# Assay type: biochemical
# Design: Flag
# stated.conditions: Table 2; unit nM; read-out: HDAC inh ID50
value.kind: IC50 (nM)

O=C(CCCCC[C@H](NC(=O)c1cccs1)C(=O)Nc1ccccc1)NO = 50
O=C(CCCCCC(C(=O)Nc1ccccc1)(C(=O)Nc1ccccc1)c1ccccc1)NO = 150
O=C(/C=C/c1cccc(C(C(=O)Nc2cccc3cccnc23)C(=O)Nc2cccc3cccnc23)c1)NO = 150
O=C(CCCCCC(NC(=O)OCc1ccccc1)C(=O)Nc1ccccc1)NO (centres unmarked) = 100
O=C(CCCCC[C@H](NC(=O)c1cccnc1)C(=O)Nc1ccccc1)NO (stereo in doubt) = 50

A. O=C(CCCCCC(C(=O)Nc1cccc2cccnc12)(C(=O)Nc1cccc2cccnc12)c1ccccc1)NO
B. O=C(CCCCCC(C(=O)Nc1cnc2ccccc2c1)C(=O)Nc1cnc2ccccc2c1)NO
Select the item whose IC50 value is smaller, choosing between A and B . Respond with the label that goes with your answer.
B

* * *

# IC50 listing for each entry below
# measurement.target: affinity purified human epitope-tagged (Flag) HDAC1 (Homo sapiens, UniProt Q13547)
# Sequence (Q13547 whole entry): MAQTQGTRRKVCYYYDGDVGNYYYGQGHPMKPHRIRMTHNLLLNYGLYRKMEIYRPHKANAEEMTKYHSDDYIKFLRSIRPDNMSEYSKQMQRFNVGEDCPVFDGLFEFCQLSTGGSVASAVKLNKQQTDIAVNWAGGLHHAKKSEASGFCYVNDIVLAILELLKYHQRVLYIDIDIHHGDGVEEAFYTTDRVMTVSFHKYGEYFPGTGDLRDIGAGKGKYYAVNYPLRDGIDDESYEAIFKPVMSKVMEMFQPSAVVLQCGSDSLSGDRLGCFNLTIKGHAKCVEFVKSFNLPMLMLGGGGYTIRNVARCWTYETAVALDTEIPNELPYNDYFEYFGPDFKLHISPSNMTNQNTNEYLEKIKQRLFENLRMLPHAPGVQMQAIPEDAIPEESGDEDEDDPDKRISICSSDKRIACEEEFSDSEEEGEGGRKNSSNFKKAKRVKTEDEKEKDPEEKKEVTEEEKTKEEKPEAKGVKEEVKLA
# measurement.protocol: Histone Deacetylase (HDAC) enzymatic activity, [3H]acetyl-labeled histone substrate
# Format: biochemical
# Parameters: Flag
# stated.conditions: Table 2; unit μM; read-out: HDAC inh ID50

CC(=O)SCCCCCC(=O)Nc1ccccc1 = > 100 µM
O=C(CCCCCn1ccnc1)Nc1ccccc1 = > 100 µM
O=C(CCCCCCC(=O)Nc1nccs1)Nc1ccccc1 = > 100 µM
O=C(/C=C/c1cccc(C(=O)Nc2ccccc2)c1)NO = 200 µM
O=C(O)CCCCCC(NC(=O)OCc1ccccc1)C(=O)Nc1cccc2cccnc12 (centres unmarked) = 10 µM
OC(c1ncc[nH]1)(c1ncc[nH]1)c1nc(CCCCCc2cnc(C(O)(c3ncc[nH]3)c3ncc[nH]3)[nH]2)c[nH]1 = 50 µM
O=C(CCCCCCC(=O)Nc1cc[nH]n1)Nc1ccccc1 = > 100 µM
O=C(Nc1ccccc1)C(CCCCCC(=O)C(F)(F)F)C(=O)Nc1ccccc1 = 10 µM
CS(=O)(=O)NCCCCCC(=O)Nc1ccccc1 = > 100 µM
CC(=O)SCCCCCCCC(=O)Nc1ccccc1 = > 100 µM

We next turn to a different molecule, shown below.
The reported affinity purified human epitope-tagged (Flag) HDAC1 (Homo sapiens, UniProt Q13547) IC50 of NS(=O)(=O)CCCCCC(=O)Nc1ccccc1 is > 100 µM

* * *

# System: Murine erythroleukemia (MEL) cells
# measurement.protocol: MEL cell differentiation assay (benzidine assay; cell growth by Coulter Counter)
# Format: cell-based
# stated.conditions: Table 2
# MEL Diff % B+ listing for each entry below
Provide only the numeric value, understood in %.

Summary for this compound, O=C(CCCCCC(C(=O)Nc1ccccc1)(C(=O)Nc1ccccc1)c1ccccc1)NO : MEL Diff % B+ is 8

Summary for this compound, O=C(/C=C/c1cccc(C(=O)Nc2ccccc2)c1)NO : MEL Diff % B+ is 0

Summary for this compound, O=C(CCCCC[C@@H](NC(=O)c1ccccc1)NC(=O)C1CCCCC1)NO : MEL Diff % B+ is 43

Summary for this compound, O=C(CCCCCC(C(=O)Nc1cccc2cccnc12)C(=O)Nc1cccc2cccnc12)NO : MEL Diff % B+ is 27

Summary for this compound, O=C(CCCCCCC(=O)Nc1nccs1)Nc1ccccc1 : MEL Diff % B+ is 0

Summary for this compound, CN(C)c1cccc2cc(S(=O)(=O)NCCCCCC(=O)NO)ccc12 : MEL Diff % B+ is 35

Summary for this compound, O=C(CCCCC[C@H](NC(=O)c1cnc2ccccc2c1)C(=O)Nc1ccccc1)NO : MEL Diff % B+ is 33

Summary for this compound, O=C(CCCCCCC(=O)Nc1cc[nH]n1)Nc1ccccc1 : MEL Diff % B+ is 0

* * *

# measurement.target: affinity purified human epitope-tagged (Flag) HDAC1 (Homo sapiens, UniProt Q13547)
# measurement.protocol: Histone Deacetylase (HDAC) enzymatic activity, [3H]acetyl-labeled histone substrate
# Format: biochemical
# Parameters: Flag
# stated.conditions: FIGS. 2, 5, 7; read-out: ID50 of HDAC1 enzymatic activity
value.kind: IC50 (nM)

A. O=C(CCCCC[C@H](NC(=O)OCc1ccccc1)C(=O)Nc1ccccc1)NO
B. O=C(CCCCC[C@H](NC(=O)c1ccccc1)C(=O)Nc1ccccc1)NO
Could you please tell me which of these two has the higher IC50: A or B ? Respond with the label that goes with your answer.
A

* * *

# Test system: Murine erythroleukemia (MEL) cells
# measurement.protocol: MEL cell differentiation assay (benzidine assay; cell growth by Coulter Counter)
# Type: cell-based
# stated.conditions: Table 2
value.kind: MEL Diff % B+ (%)
Provide only the numeric value, understood in %.

Completed entries (count: 5):
NS(=O)(=O)CCCCCCC(=O)Nc1ccccc1 = 0
O=C(CCCCC[C@H](NC(=O)c1cccnc1)C(=O)Nc1ccccc1)NO (stereo in doubt) = 27
O=C(CCCCCCC(=O)Nc1cccc2cccnc12)NO = 11
O=C(CCCCC[C@H](NC(=O)c1cccs1)C(=O)Nc1ccccc1)NO = 24
O=C(O)CCCCC[C@@H](NC(=O)c1cccnc1)C(=O)Nc1ccccc1 = 0

Summary for this compound, NS(=O)(=O)CCCCCC(=O)Nc1ccccc1 : MEL Diff % B+ is 0

Summary for this compound, O=C(CCCCCn1ccnc1)Nc1ccccc1 : MEL Diff % B+ is 0

Summary for this compound, O=C(CCCCC[C@H](NC(=O)c1ccccc1)C(=O)Nc1ccccc1)NO : MEL Diff % B+ is 44

Summary for this compound, CS(=O)(=O)NCCCCCC(=O)Nc1ccccc1 : MEL Diff % B+ is 0

Summary for this compound, O=C(CCCCCCC(=O)Nc1ccccc1)NO [SAHA, suberoylanilide hydroxamic acid, reference compound] : MEL Diff % B+ is 68

* * *

# MEL Diff % B+ listing for each entry below
# Test system: Murine erythroleukemia (MEL) cells
# measurement.protocol: MEL cell differentiation assay (benzidine assay; cell growth by Coulter Counter)
# Format: cell-based
# stated.conditions: Table 2
Provide only the numeric value, understood in %.

Completed entries (count: 3):
O=C(CCCCC[C@H](NC(=O)OCc1ccccc1)C(=O)Nc1cccc2cccnc12)NO = 8
O=C(CCCCCC(C(=O)Nc1cnc2ccccc2c1)C(=O)Nc1cnc2ccccc2c1)NO = 23
CC(=O)SCCCCCC(=O)Nc1ccccc1 = 0

Summary for this molecule, O=C(CCCCCCn1ccnc1)Nc1ccccc1 : MEL Diff % B+ is 0

Summary for this molecule, O=C(CCCCCC(C(=O)Nc1ccccc1)C(=O)Nc1ccccc1)NO : MEL Diff % B+ is 31

Summary for this molecule, O=C(/C=C/c1cccc(C(C(=O)Nc2cccc3cccnc23)C(=O)Nc2cccc3cccnc23)c1)NO : MEL Diff % B+ is 38

Summary for this molecule, O=C(CCCCCC(CCCCCC(=O)NO)(C(=O)Nc1cccc2cccnc12)C(=O)Nc1cccc2cccnc12)NO : MEL Diff % B+ is 20

Summary for this molecule, O=C(CCCCCC(C(=O)Nc1cccc2ncccc12)C(=O)Nc1cccc2ncccc12)NO : MEL Diff % B+ is 0

* * *

# System: Murine erythroleukemia (MEL) cells
# measurement.protocol: MEL cell differentiation assay (benzidine assay; cell growth by Coulter Counter)
# Type: cell-based
# stated.conditions: Table 2
value.kind: MEL Diff % B+ (%)
Provide only the numeric value, understood in %.

Completed entries (count: 5):
O=C(Nc1ccccc1)C(CCCCCC(=O)C(F)(F)F)C(=O)Nc1ccccc1 = 11
O=C(CCCCC[C@@H](NC(=O)c1ccccc1)C(=O)Nc1cccc2cccnc12)NO = 7
OC(c1ncc[nH]1)(c1ncc[nH]1)c1nc(CCCCCc2cnc(C(O)(c3ncc[nH]3)c3ncc[nH]3)[nH]2)c[nH]1 = 0
O=C(/C=C/c1cccc(CC(=O)Nc2ccccc2)c1)NO = 48
O=C(O)CCCCCC(NC(=O)OCc1ccccc1)C(=O)Nc1cccc2cccnc12 (stereo not drawn) = 0

Summary for this compound, COP(=O)(NCCCCCC(=O)Nc1ccccc1)OC : MEL Diff % B+ is 0

Summary for this compound, O=C(CCCCCC(C(=O)Nc1ccc2ncccc2c1)C(=O)Nc1ccc2ncccc2c1)NO : MEL Diff % B+ is 27

Summary for this compound, O=C(CCCCCC(NC(=O)OCc1ccccc1)C(=O)Nc1ccccc1)NO (stereo not drawn) : MEL Diff % B+ is 16

* * *

# MEL Diff % B+ listing for each entry below
# Test system: Murine erythroleukemia (MEL) cells
# measurement.protocol: MEL cell differentiation assay (benzidine assay; cell growth by Coulter Counter)
# Format: cell-based
# stated.conditions: Table 2
Provide only the numeric value, understood in %.

Completed entries (count: 3):
O=C(CCCCCC(C(=O)Nc1cccc2cccnc12)(C(=O)Nc1cccc2cccnc12)c1ccccc1)NO = 3
O=C(CCCCCBr)Nc1ccccc1 = 0
O=C(O)CCCCC[C@@H](NC(=O)c1ccccc1)C(=O)Nc1ccccc1 = 0

Summary for this molecule, O=C(/C=C/c1cccc(C(C(=O)Nc2ccccc2)C(=O)Nc2ccccc2)c1)NO : MEL Diff % B+ is 9
